Assayed target: T1, rat VPAC1 receptor (rat, UniProt P30083 31-459)
T1 sequence (looked up): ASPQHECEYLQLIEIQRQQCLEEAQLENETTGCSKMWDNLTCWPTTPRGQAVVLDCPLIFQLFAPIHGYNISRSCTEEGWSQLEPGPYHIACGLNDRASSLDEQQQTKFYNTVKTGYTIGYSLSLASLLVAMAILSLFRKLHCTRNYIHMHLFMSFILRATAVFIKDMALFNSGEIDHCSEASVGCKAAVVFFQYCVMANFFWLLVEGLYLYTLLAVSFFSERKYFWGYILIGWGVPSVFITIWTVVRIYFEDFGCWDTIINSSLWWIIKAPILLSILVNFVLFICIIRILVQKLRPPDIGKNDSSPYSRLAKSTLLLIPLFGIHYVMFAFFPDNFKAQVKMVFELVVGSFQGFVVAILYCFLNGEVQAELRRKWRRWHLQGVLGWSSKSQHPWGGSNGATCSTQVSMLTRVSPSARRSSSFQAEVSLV
Assay protocol: cell-based or functional assay
Kindly state Rat VPAC1 Receptor: DiscoveRx: (EC50; nM) for each of the entries shown.
Answers are plain numbers, in nM.

- Binder: "HSDAVFTEQYTXLRXQVAAXXYLQXIXXGGPSSGAPPPC (C6-HSDAVFTEQY(OMe)TOrnLRAibQVAAAibOrnYLQAibIOrnOrnGGPSSGAPPPC(PEG40K)-NH2) [P509]"
  Test result: 328

Your task in this section: give Rat VPAC1 Receptor: DiscoveRx: (EC50; nM) for each listed record.
1. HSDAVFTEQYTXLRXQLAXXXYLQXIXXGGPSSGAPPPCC (C6-HSDAVFTEQY(OMe)TOrnLRAibQLAAbuAibOrnY(OMe)LQAibIOrnOrnGGPSSGAPPPC(PEG20K)C(PEG20K)-NH2) [P574]
2. HSDAVFTEQYTXLRXQLAXXXYLQSIXXXGGPSSGAPPPC (C6-HSDAVFTEQY(OMe)TOrnLRAibQLAAbuAibOrnYLQSIOrnK(CO(CH2)2SPEG20K)OrnGGPSSGAPPPC(PEG20K)-NH2) [P551]
3. HSDAVFTEQYTXLRCQVAAXXYLQSIXXGGPSSGAPPPS (C6-HSDAVFTEQY(OMe)TOrnLRC(PEG40K)QVAAAibOrnYLQSIOrnOrnGGPSSGAPPPS-NH2) [P483]
4. HSDAVFTEQYTXLRXQCAXXXYLQXIXXGGPSSGAPPPS (C6-HSDAVFTEQY(OMe)TOrnLRAibQC(PEG40K)AAbuAibOrnYLQAibIOrnOrnGGPSSGAPPPS-NH2) [P545]

[163, 172, 224, 380]
